- tgt: huCD4_1–32-YFP L12A (Homo sapiens, UniProt P01730, L12A)
- procedure-details: CADA inhibition of huCD4_1–32-YFP secretion
- Assay type: cell-based
- test-context: read-out: Secreted YFP IC50 (μM) Mean, HEK293T, CADA 48h
readout-kind: IC50 (µM)

* C=C1CN(S(=O)(=O)c2ccc(C)cc2)CCCN(Cc2ccccc2)CCCN(S(=O)(=O)c2ccc(C)cc2)C1 [CADA, Cyclotriazadisulfonamide] | 0.24

---

- tgt: FL huCD4 G31A (Homo sapiens, UniProt P01730, G31A)
- procedure-details: CADA down-modulation of cellular huCD4
- Assay type: cell-based
- test-context: read-out: Cellular huCD4 IC50 (μM) Mean, HEK293T, CADA 48h
readout-kind: IC50

* C=C1CN(S(=O)(=O)c2ccc(C)cc2)CCCN(Cc2ccccc2)CCCN(S(=O)(=O)c2ccc(C)cc2)C1 [CADA, Cyclotriazadisulfonamide] | 0.72 µM

---

- tgt: FL huCD4 K27A (Homo sapiens, UniProt P01730, K27A)
- procedure-details: CADA down-modulation of cellular huCD4
- Format: cell-based
- test-context: read-out: Cellular huCD4 IC50 (μM) Mean, HEK293T, CADA 48h
readout-kind: IC50 (µM)

- C=C1CN(S(=O)(=O)c2ccc(C)cc2)CCCN(Cc2ccccc2)CCCN(S(=O)(=O)c2ccc(C)cc2)C1 [CADA, Cyclotriazadisulfonamide]: 1.3

---

- tgt: huCD4_1–32-YFP L16A (Homo sapiens, UniProt P01730, L16A)
- procedure-details: CADA inhibition of huCD4_1–32-YFP secretion
- Format: cell-based
- test-context: read-out: Secreted YFP IC50 (μM) Mean, HEK293T, CADA 48h
readout-kind: IC50

* C=C1CN(S(=O)(=O)c2ccc(C)cc2)CCCN(Cc2ccccc2)CCCN(S(=O)(=O)c2ccc(C)cc2)C1 [CADA, Cyclotriazadisulfonamide] | 0.4 µM

---

- tgt: huCD4_1–32-YFP R8A (Homo sapiens, UniProt P01730, R8A)
- procedure-details: CADA inhibition of huCD4_1–32-YFP secretion
- Format: cell-based
- test-context: read-out: Secreted YFP IC50 (μM) Mean, HEK293T, CADA 48h
readout-kind: IC50

* C=C1CN(S(=O)(=O)c2ccc(C)cc2)CCCN(Cc2ccccc2)CCCN(S(=O)(=O)c2ccc(C)cc2)C1 [CADA, Cyclotriazadisulfonamide] | > 50 µM

---

- tgt: huCD4_1–32-YFP L10A (Homo sapiens, UniProt P01730, L10A)
- procedure-details: CADA inhibition of huCD4_1–32-YFP secretion
- Assay type: cell-based
- test-context: read-out: Secreted YFP IC50 (μM) Mean, HEK293T, CADA 48h
readout-kind: IC50 (µM)

• C=C1CN(S(=O)(=O)c2ccc(C)cc2)CCCN(Cc2ccccc2)CCCN(S(=O)(=O)c2ccc(C)cc2)C1 [CADA, Cyclotriazadisulfonamide] = 0.6

---

- Test system: huCD4_1–32-YFP K27A
- procedure-details: CADA inhibition of huCD4_1–32-YFP secretion
- Assay type: cell-based, human
- test-context: read-out: Secreted YFP IC50 (μM) Mean, HEK293T, CADA 48h
readout-kind: IC50

* C=C1CN(S(=O)(=O)c2ccc(C)cc2)CCCN(Cc2ccccc2)CCCN(S(=O)(=O)c2ccc(C)cc2)C1 [CADA, Cyclotriazadisulfonamide] | > 50 µM

---

- tgt: huCD4_1–32-YFP A22V (Homo sapiens, UniProt P01730, A22V)
- procedure-details: CADA inhibition of huCD4_1–32-YFP secretion
- Type: cell-based
- test-context: read-out: Secreted YFP IC50 (μM) Mean, HEK293T, CADA 48h
readout-kind: IC50 (µM)

- C=C1CN(S(=O)(=O)c2ccc(C)cc2)CCCN(Cc2ccccc2)CCCN(S(=O)(=O)c2ccc(C)cc2)C1 [CADA, Cyclotriazadisulfonamide]: 1.58

---

- tgt: huCD4_1–32-YFP L11A (Homo sapiens, UniProt P01730, L11A)
- procedure-details: CADA inhibition of huCD4_1–32-YFP secretion
- Assay type: cell-based
- test-context: read-out: Secreted YFP IC50 (μM) Mean, HEK293T, CADA 48h
readout-kind: IC50 (µM)

• C=C1CN(S(=O)(=O)c2ccc(C)cc2)CCCN(Cc2ccccc2)CCCN(S(=O)(=O)c2ccc(C)cc2)C1 [CADA, Cyclotriazadisulfonamide] = 0.38

---

- tgt: FL huCD4 L30A (Homo sapiens, UniProt P01730, L30A)
- procedure-details: CADA down-modulation of cellular huCD4
- Format: cell-based
- test-context: read-out: Cellular huCD4 IC50 (μM) Mean, HEK293T, CADA 48h
readout-kind: IC50 (µM)

• C=C1CN(S(=O)(=O)c2ccc(C)cc2)CCCN(Cc2ccccc2)CCCN(S(=O)(=O)c2ccc(C)cc2)C1 [CADA, Cyclotriazadisulfonamide] = 0.84

---

- tgt: FL huCD4 F7A (Homo sapiens, UniProt P01730, F7A)
- procedure-details: CADA down-modulation of cellular huCD4
- Format: cell-based
- test-context: read-out: Cellular huCD4 IC50 (μM) Mean, HEK293T, CADA 48h
readout-kind: IC50 (µM)

• C=C1CN(S(=O)(=O)c2ccc(C)cc2)CCCN(Cc2ccccc2)CCCN(S(=O)(=O)c2ccc(C)cc2)C1 [CADA, Cyclotriazadisulfonamide] = 0.13

---

- tgt: FL huCD4 V28A (Homo sapiens, UniProt P01730, V28A)
- procedure-details: CADA down-modulation of cellular huCD4
- Assay type: cell-based
- test-context: read-out: Cellular huCD4 IC50 (μM) Mean, HEK293T, CADA 48h
readout-kind: IC50

• C=C1CN(S(=O)(=O)c2ccc(C)cc2)CCCN(Cc2ccccc2)CCCN(S(=O)(=O)c2ccc(C)cc2)C1 [CADA, Cyclotriazadisulfonamide] = 0.54 µM

---

- tgt: huCD4_1–32-YFP N2A (Homo sapiens, UniProt P01730, N2A)
- procedure-details: CADA inhibition of huCD4_1–32-YFP secretion
- Type: cell-based
- test-context: read-out: Secreted YFP IC50 (μM) Mean, HEK293T, CADA 48h
readout-kind: IC50 (µM)

- C=C1CN(S(=O)(=O)c2ccc(C)cc2)CCCN(Cc2ccccc2)CCCN(S(=O)(=O)c2ccc(C)cc2)C1 [CADA, Cyclotriazadisulfonamide]: 0.39

---

- tgt: FL huCD4 L19A (Homo sapiens, UniProt P01730, L19A)
- procedure-details: CADA down-modulation of cellular huCD4
- Assay type: cell-based
- test-context: read-out: Cellular huCD4 IC50 (μM) Mean, HEK293T, CADA 48h
readout-kind: IC50 (µM)

- C=C1CN(S(=O)(=O)c2ccc(C)cc2)CCCN(Cc2ccccc2)CCCN(S(=O)(=O)c2ccc(C)cc2)C1 [CADA, Cyclotriazadisulfonamide]: 1.04

---

- tgt: FL huCD4 P20A (Homo sapiens, UniProt P01730, P20A)
- procedure-details: CADA down-modulation of cellular huCD4
- Assay type: cell-based
- test-context: read-out: Cellular huCD4 IC50 (μM) Mean, HEK293T, CADA 48h
readout-kind: IC50

• C=C1CN(S(=O)(=O)c2ccc(C)cc2)CCCN(Cc2ccccc2)CCCN(S(=O)(=O)c2ccc(C)cc2)C1 [CADA, Cyclotriazadisulfonamide] = 2.35 µM

---

- tgt: FL huCD4 K26A (Homo sapiens, UniProt P01730, K26A)
- procedure-details: CADA down-modulation of cellular huCD4
- Assay type: cell-based
- test-context: read-out: Cellular huCD4 IC50 (μM) Mean, HEK293T, CADA 48h
readout-kind: IC50 (µM)

* C=C1CN(S(=O)(=O)c2ccc(C)cc2)CCCN(Cc2ccccc2)CCCN(S(=O)(=O)c2ccc(C)cc2)C1 [CADA, Cyclotriazadisulfonamide] | 1.44

---

- tgt: FL huCD4 T23A (Homo sapiens, UniProt P01730, T23A)
- procedure-details: CADA down-modulation of cellular huCD4
- Format: cell-based
- test-context: read-out: Cellular huCD4 IC50 (μM) Mean, HEK293T, CADA 48h
readout-kind: IC50 (µM)

• C=C1CN(S(=O)(=O)c2ccc(C)cc2)CCCN(Cc2ccccc2)CCCN(S(=O)(=O)c2ccc(C)cc2)C1 [CADA, Cyclotriazadisulfonamide] = 0.87

---

- tgt: huCD4_1–32-YFP L18A (Homo sapiens, UniProt P01730, L18A)
- procedure-details: CADA inhibition of huCD4_1–32-YFP secretion
- Format: cell-based
- test-context: read-out: Secreted YFP IC50 (μM) Mean, HEK293T, CADA 48h
readout-kind: IC50 (µM)

* C=C1CN(S(=O)(=O)c2ccc(C)cc2)CCCN(Cc2ccccc2)CCCN(S(=O)(=O)c2ccc(C)cc2)C1 [CADA, Cyclotriazadisulfonamide] | 0.67
